# Tested on: NCI-H1581;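 also: cell growth inhibition read out by a viability assay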
# ASSAY_EXPLANATION: cells
# Assay type: functional, cell-based, Homo sapiens
# MEASUREMENT_SETUP: Homo sapiens, NCI-H1581
# Description: SANGER: Inhibition of human NCI-H1581 cell growth in a cell viability assay.
pIC50: −log10 of the molar value.
Catalogue of compounds with associated pIC50
READOUT: pIC50

SUBSTANCE_SMILES	READOUT	READING
Cc1cc(N2CCOCC2)cc2[nH]c(-c3c(NC[C@@H](O)c4cccc(Cl)c4)cc[nH]c3=O)nc12	pIC50	< 5.29
NC1(c2ccc(-c3nc4ccn5c(=O)[nH]nc5c4cc3-c3ccccc3)cc2)CCC1	pIC50	< 5.40
NC(=O)c1cccc(-c2cc(Nc3ccc(OC(F)(F)F)cc3)ncn2)c1	pIC50	< 5.89
Cc1ccc(C(=O)Nc2ccc(CN3CCN(C)CC3)c(C(F)(F)F)c2)cc1C#Cc1cnc2cccnn12	pIC50	< 6.29
COC(=O)[C@H](CCSC)NC(=O)c1ccc(NC[C@@H](N)CS)cc1-c1ccccc1	pIC50	< 5.99

---

# Test system: NCI-H716;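 also: growth inhibition of human NCI-H716 cells, measured by a cell viability assay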
# ASSAY_EXPLANATION: cells
# Type: functional, cell-based, Homo sapiens
# MEASUREMENT_SETUP: nci-h716
# Description: SANGER: Inhibition of human NCI-H716 cell growth in a cell viability assay.
pIC50: −log10 of the molar value. Where a SMILES comes first, the peptide text is derived from it. The star is where a group is joined. Cbz = O=C(OCc1ccccc1)*
READOUT: pIC50

MOLECULE	READING
CC(C)C[C@@H](C=O)NC(=O)[C@H](CC(C)C)NC(=O)[C@H](CC(C)C)NC(=O)OCc1ccccc1 [MG-132] (Cbz-Leu-Leu-Leu-aldehyde)	< 6.00

---

# Test system: T47D;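 also: growth inhibition of human T47D cells, measured with a cell viability assay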
# ASSAY_EXPLANATION: cells
# Type: functional, cell-based
# MEASUREMENT_SETUP: Homo sapiens
# Description: SANGER: Inhibition of human T47D cell growth in a cell viability assay.

SUBSTANCE_SMILES	IC50
CS(=O)(=O)N1CCN(Cc2cc3nc(-c4cccc5[nH]ncc45)nc(N4CCOCC4)c3s2)CC1	598 nM
CC1=C(/C=C/C(C)=C/C=C/C(C)=C/C(=O)O)C(C)(C)CCC1	> 10000 nM
CN(NC(=O)CC(=O)NN(C)C(=S)c1ccccc1)C(=S)c1ccccc1	16.8 nM
Cc1ccc(-n2nc(C(C)(C)C)cc2NC(=O)Nc2ccc(OCCN3CCOCC3)c3ccccc23)cc1	> 10000 nM
O=S(=O)(O)c1ccc2cc(/N=N/c3cc(S(=O)(=O)O)c4cccnc4c3O)ccc2c1	> 16000 nM

---

# System: ES3;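 also: growth inhibition of ES3 cells, read out with a cell viability assay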
# ASSAY_EXPLANATION: cells
# Format: functional, cell-based, Homo sapiens
# MEASUREMENT_SETUP: Homo sapiens, ES3
# Description: SANGER: Inhibition of human ES3 cell growth in a cell viability assay.
pIC50: −log10 of the molar value.
Catalogue of compounds with associated pIC50
READOUT: pIC50

SUBSTANCE_SMILES	MEASURED_ON	REPORTED_RELATION	READING
CN(NC(=O)CC(=O)NN(C)C(=S)c1ccccc1)C(=S)c1ccccc1	ES3	=	8.24
CCCCCCCCCCCC1=C(O)C(=O)C=C(O)C1=O	ES3	=	4.81
COc1ccc(-c2cc3nccn3c(Nc3ncccc3C(N)=O)n2)cc1OC	ES3	=	5.52
NC(=O)c1ccc(N(C(N)=O)c2c(F)cccc2F)nc1-c1ccc(F)cc1F	ES3	<	5.70
NC(=O)c1cccc(-c2cc(Nc3ccc(OC(F)(F)F)cc3)ncn2)c1	ES3	<	5.89
